Biological target: GRID2IP_2, A4D2P6
Sequence (A4D2P6 272-370): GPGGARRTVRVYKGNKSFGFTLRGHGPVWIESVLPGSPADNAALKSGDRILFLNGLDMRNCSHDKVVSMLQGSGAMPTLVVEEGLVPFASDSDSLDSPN
Assay: holdup assay
Set-up: key: below the threshold = too weak to quantify, mostly under pKd 3.1 to 4
Conditions: plain residues with an end cap or a label only (N-terminal biotin on a linker: ttds)

Binder: KLVIKTETTV [RASSF6, Q6ZTQ3]
pKd: below the threshold

Binder: SHSSKGETAV [FZD7, O75084]
pKd: below the threshold

Binder: FVETQHQTQV [FAT3, Q8TDW7]
pKd: 3.59

Binder: PFRSRSPSEV [GPR6, P46095]
pKd: below the threshold
